- subjectOfTest: Mitogen-activated protein kinase 8 (Homo sapiens, UniProt P45983)
- Sequence (P45983 whole entry): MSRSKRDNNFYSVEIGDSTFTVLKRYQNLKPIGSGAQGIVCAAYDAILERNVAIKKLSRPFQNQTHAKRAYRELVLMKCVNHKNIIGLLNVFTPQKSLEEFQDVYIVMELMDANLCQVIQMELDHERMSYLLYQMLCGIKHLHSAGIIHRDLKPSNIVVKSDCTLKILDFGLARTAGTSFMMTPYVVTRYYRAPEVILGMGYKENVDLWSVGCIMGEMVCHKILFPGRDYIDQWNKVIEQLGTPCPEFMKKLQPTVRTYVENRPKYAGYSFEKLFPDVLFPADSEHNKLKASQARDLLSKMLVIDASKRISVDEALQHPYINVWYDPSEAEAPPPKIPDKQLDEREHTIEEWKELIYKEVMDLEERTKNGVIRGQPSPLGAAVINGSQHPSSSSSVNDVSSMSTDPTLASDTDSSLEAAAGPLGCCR
- protocolDetails: Inhibition of human JNK1 by radiometric assay
For each of the compounds below, state its pIC50.
Numbers only, as −log10 of the molar value.

1) COC(=O)c1c(-c2ccccc2)c2cc(Br)ccc2c(=O)n1CC1CCCCC1 | 6.35
2) COC(=O)c1c(-c2ccccc2)c2cc(Br)ccc2c(=O)n1Cc1cccc(OC)c1 | 7.10
3) COC(=O)c1c(-c2ccccc2)c2ccccc2c(=O)n1Cc1ccccc1 | 7.02
4) COC(=O)c1c(-c2ccccc2)c2cc(Cl)ccc2c(=O)n1Cc1ccc(S(C)(=O)=O)cc1 | 7.55

Please examine the following record next.
// query Identify the reported pIC50 for the following entry. COC(=O)c1c(-c2ccccc2)c2ccccc2c(=O)n1Cc1ccc(S(C)(=O)=O)cc1
// result 7.23

---

- subjectOfTest: Inhibitor of nuclear factor kappa-B kinase subunit beta (Homo sapiens, UniProt O14920)
- Sequence (O14920 whole entry): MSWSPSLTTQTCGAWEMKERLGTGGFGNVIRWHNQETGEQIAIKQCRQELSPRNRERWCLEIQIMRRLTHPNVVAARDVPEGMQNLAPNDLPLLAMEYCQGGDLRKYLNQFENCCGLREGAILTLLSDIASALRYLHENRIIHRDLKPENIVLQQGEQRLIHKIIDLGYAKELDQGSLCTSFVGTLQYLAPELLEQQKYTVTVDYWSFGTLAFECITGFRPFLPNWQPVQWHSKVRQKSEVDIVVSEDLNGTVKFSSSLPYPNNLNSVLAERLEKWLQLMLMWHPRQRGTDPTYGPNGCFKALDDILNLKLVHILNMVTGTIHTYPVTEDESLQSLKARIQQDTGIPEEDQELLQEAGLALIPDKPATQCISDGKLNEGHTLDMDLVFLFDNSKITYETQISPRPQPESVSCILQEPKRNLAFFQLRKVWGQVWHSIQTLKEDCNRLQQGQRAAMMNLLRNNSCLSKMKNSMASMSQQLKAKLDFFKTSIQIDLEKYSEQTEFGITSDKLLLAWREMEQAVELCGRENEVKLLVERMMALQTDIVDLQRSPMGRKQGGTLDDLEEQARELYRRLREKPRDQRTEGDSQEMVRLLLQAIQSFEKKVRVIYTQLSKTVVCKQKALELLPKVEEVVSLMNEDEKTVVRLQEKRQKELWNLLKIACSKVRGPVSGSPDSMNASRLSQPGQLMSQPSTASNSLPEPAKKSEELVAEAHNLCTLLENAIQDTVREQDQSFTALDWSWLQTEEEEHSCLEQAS
- protocolDetails: Inhibition of IKK-beta
quantityKind: IC50

// query Consider the molecule COC(=O)c1c(-c2ccccc2)c2cc(Br)ccc2c(=O)n1Cc1ccc(S(C)(=O)=O)cc1 and give its recorded IC50.
// result > 11 µM

---

- protocolDetails: AUC in rat at 10 mg/kg, po
- Format: ADME, organism-based
- Parameters: dose 10 mg/kg, route oral
- testParameters: plasma
quantityKind: AUC (ng·h/mL)
One number for each entry, in ng·h/mL.

// query Identify AUC associated with the compound COC(=O)c1c(-c2ccccc2)c2cc(Br)ccc2c(=O)n1Cc1ccc(S(C)(=O)=O)cc1
// result 3360

---

- protocolDetails: Tmax in rat at 1 mg/kg, iv and 10 mg/kg, po
- Assay type: ADME, organism-based
- testParameters: in vivo
quantityKind: Tmax (h)
Answers are plain numbers, in h.

// query Name the recorded Tmax of the item COC(=O)c1c(-c2ccccc2)c2cc(Br)ccc2c(=O)n1Cc1ccc(S(C)(=O)=O)cc1 in your answer.
// result 6.67
